# Test system: IL-1β, human whole blood
# Assay Details: Whole blood assay for IL-1β production
# Type: cell-based
# Assay Setup: Homo sapiens, * = values obtained upon reassay; read-out: Whole human blood IC50
Measure: pIC50
A value of pIC50 is the negative decimal logarithm of a concentration given in moles per litre.

Exercise: Could you tell me which pIC50 is on file for O=C[C@H](CC(=O)O)NC(=O)[C@@H]1CCCN2C(=O)CC[C@H](NC(=O)c3ccc(OCc4ccccc4)cc3)C(=O)N12 [Compound 499] ?
Key: 5.05

Exercise: Also CC(=O)Nc1cccc(C(=O)N[C@H]2CCC(=O)N3CCC[C@@H](C(=O)N[C@H](C=O)CC(=O)O)N3C2=O)c1 [Compound 450] , if possible.
Key: 5.66

Exercise: Same again, this time with CN(C)c1cccc(C(=O)N[C@H]2CCC(=O)N3CCC[C@@H](C(=O)N[C@H](C=O)CC(=O)O)N3C2=O)c1 [Compound 470]
Key: 6.44

Exercise: Same again, this time with O=C(O)C[C@H](NC(=O)[C@@H]1CCCN2C(=O)CC[C@H](NC(=O)CCc3ccccc3)C(=O)N12)C(=O)c1ncc(-c2c(Cl)cccc2Cl)o1 [Compound 137]
Key: 4.85

Exercise: What about Nc1ccc(C(=O)N[C@H]2CCC(=O)N3CCC[C@@H](C(=O)N[C@H](C=O)CC(=O)O)N3C2=O)cc1 [Compound 431] ?
Key: 5.10

Exercise: Thanks! And O=C(O)C[C@H](NC(=O)[C@@H]1CCCN2C(=O)CC[C@H](NC(=O)c3ccccc3)C(=O)N12)C(=O)COc1cccnc1 [Compound 283] ?
Key: 6.35

Exercise: O=C[C@H](CC(=O)O)NC(=O)[C@@H]1CCCN2C(=O)CC[C@H](NC(=O)CCc3ccccc3)C(=O)N12 [Compound 47a] , same question.
Key: 5.29

Exercise: Try the molecule COC(=O)N[C@H]1CCC(=O)N2CCC[C@@H](C(=O)N[C@@H](CC(=O)O)C(=O)COC(=O)c3c(C)cccc3C)N2C1=O [Compound 285]
Key: 6.00

Exercise: Also check CN(C)c1ccc(C(=O)N[C@H]2CCC(=O)N3CCC[C@@H](C(=O)N[C@H](C=O)CC(=O)O)N3C2=O)c2ccccc12 [Compound 441]
Key: 5.35

Exercise: How about this molecule: COc1cc(C(=O)N[C@H]2CCC(=O)N3CCC[C@@H](C(=O)N[C@H](C=O)CC(=O)O)N3C2=O)cc(OC)c1OC [Compound 417]
Key: 5.22

Exercise: How about Cc1nc(C)c(C(=O)N[C@H]2CCC(=O)N3CCC[C@@H](C(=O)N[C@H](C=O)CC(=O)O)N3C2=O)s1 [Compound 423] ?
Key: 5.82

Exercise: Now the same for CC(=O)N1C[C@H](NC(=O)C(=O)c2ccccc2)C(=O)N(CC(=O)N[C@H](C=O)CC(=O)O)c2ccccc21 [Compound 635]
Key: 5.40

Exercise: Same thing, different molecule: Cc1ccc(Cl)cc1C(=O)N[C@H]1CCC(=O)N2CCC[C@@H](C(=O)N[C@H](C=O)CC(=O)O)N2C1=O [Compound 466]
Key: 6.22

Exercise: Then COc1cccc2nc(C(=O)[C@H](CC(=O)O)NC(=O)[C@@H]3CCCN4C(=O)CC[C@H](NC(=O)CCc5ccccc5)C(=O)N34)oc12 [Compound 135a] ?
Key: 5.30

Exercise: Now the same for O=C[C@H](CC(=O)O)NC(=O)[C@@H]1CCCN2C(=O)CC[C@H](NC(=O)c3ccc(OC(=O)c4ccc(O)cc4)cc3)C(=O)N12 [Compound 457]
Key: 5.46

Exercise: Again, but for O=C[C@H](CC(=O)O)NC(=O)[C@@H]1CCCN2C(=O)CCN(NC(=O)c3ccc4c(c3)OCO4)C(=O)N12 [Compound 1015]
Key: 5.77

Exercise: Entry to check: CC(=O)N[C@H]1CCC(=O)N2CCC[C@@H](C(=O)N[C@@H](CC(=O)O)C(=O)COC(=O)c3c(Cl)cccc3Cl)N2C1=O [Compound 217c]
Key: 5.15

Exercise: # repeat for O=C[C@H](CC(=O)O)NC(=O)[C@@H]1CCCN2C(=O)CC[C@H](NC(=O)c3cccc(Cl)c3)C(=O)N12 [Compound 455]
Key: 5.55

Exercise: Param item: O=C1C[C@H](NC(=O)[C@@H]2CCCN3C(=O)CC[C@H](NC(=O)C(=O)c4ccccc4)C(=O)N23)C(OCc2ccccc2)O1 (stereo partly shown) [Compound 2001]
Key: 5.46

Exercise: Also check O=C[C@H](CC(=O)O)NC(=O)[C@@H]1CCCN2C(=O)CC[C@H](NC(=O)c3ccsc3)C(=O)N12 [Compound 410]
Key: 5.55

Exercise: CS(=O)(=O)N[C@H]1CCC(=O)N2CCC[C@@H](C(=O)N[C@@H](CC(=O)O)C(=O)COC(=O)c3c(Cl)cccc3Cl)N2C1=O [Compound 138] , same question.
Key: 5.54

Exercise: What do you have for O=C[C@H](CC(=O)O)NC(=O)[C@@H]1CCCN2C(=O)CC[C@H](NC(=O)OCc3ccccc3)C(=O)N12 [Compound 496] ?
Key: 5.22
